test system: NAD(P)H dehydrogenase [quinone] 1 (Homo sapiens)
method summary: Substrate activity at recombinant human NQO1 expressed in Escherichia coli assessed as reduction rate by measuring umol of NADPH utilized per umol of enzyme at 10 uM preincubated for 3 mins followed by NADPH addition measured at 2 secs interval for 5 mins by UV-Vis spectroscopy
observed property: Activity (µmol/min)
Provide only the numeric value, understood in µmol/min.

The reported value for Cc1cc2c(cc1C)-c1oc(C(=O)NCc3ccc(F)cc3)c(C)c1C(=O)C2=O in terms of Activity is 1290

In plain terms, Cc1cc2c(cc1C)-c1oc(C(=O)N3CCN(c4ccc(F)cc4)CC3)c(C)c1C(=O)C2=O has a documented Activity of 1190

Value of Activity reported for the compound Cc1cc2c(cc1C)-c1oc(C(=O)Nc3ccc(F)cc3)c(C)c1C(=O)C2=O is 1260

// field: Activity; key: Cc1cc2c(cc1C)-c1oc(CNc3ccc(F)cc3F)c(C)c1C(=O)C2=O ; value = 1180

// recorded Activity for Cc1cc2c(cc1C)-c1oc(CNc3cccc(F)c3)c(C)c1C(=O)C2=O : 1340

Activity reported for this compound Cc1cc2c(cc1C)-c1oc(C(=O)N3CCN(Cc4ccccc4)CC3)c(C)c1C(=O)C2=O : 1360

For this compound ( Cc1cc2c(cc1C)-c1oc(CNc3ccc(F)cc3C)c(C)c1C(=O)C2=O ), measured Activity is 1320

Summary for this compound, Cc1cc2c(cc1C)-c1oc(CNc3ccc(F)cc3)c(C)c1C(=O)C2=O : Activity is 1330

Activity for Cc1cc2c(cc1C)-c1oc(CNc3ccc(Br)cc3)c(C)c1C(=O)C2=O is 1150

What the record says about Cc1cc2c(cc1C)-c1oc(CNc3ccc(C#N)cc3)c(C)c1C(=O)C2=O : Activity is 898

====

method summary: Effective permeability of the compound at pH 7.4 by PAMPA assay
Type: ADME
particulars: read-out: Peff
Label fulfilled when Papp is at or above 40 ×10⁻⁶ cm/s; anything below gets not fulfilled.

Query: In plain terms: is recorded Papp at least 40 ×10⁻⁶ cm/s for Cc1cc2c(cc1C)-c1oc(CNc3ccc(CN4CCOCC4)cc3)c(C)c1C(=O)C2=O ?
Response: fulfilled

Query: Entry Cc1cc2c(cc1C)-c1oc(C(=O)N3CCN(Cc4ccccc4)CC3)c(C)c1C(=O)C2=O : is its Papp no less than 40 ×10⁻⁶ cm/s?
Response: not fulfilled

Query: Evaluate Cc1cc2c(cc1C)-c1oc(CNc3cccc(F)c3)c(C)c1C(=O)C2=O : Papp at minimum 40 ×10⁻⁶ cm/s?
Response: fulfilled

Query: # check: Papp of Cc1cc2c(cc1C)-c1oc(CNc3ccc(F)cc3)c(C)c1C(=O)C2=O is greater than or equal to 40 ×10⁻⁶ cm/s
Response: fulfilled

Query: Decide: Papp of CC1(C)CCC2=C(O1)c1ccccc1C(=O)C2=O [LAPACHONE] >= 40 ×10⁻⁶ cm/s?
Response: fulfilled

Query: Is Papp for Cc1cc2c(cc1C)-c1occ(C)c1C(=O)C2=O at or above 40 ×10⁻⁶ cm/s?
Response: fulfilled

Query: Check the entry Cc1cc2c(cc1C)-c1oc(CN3CCN(c4ccc(F)cc4)CC3)c(C)c1C(=O)C2=O : does Papp equal or exceed 40 ×10⁻⁶ cm/s?
Response: not fulfilled
